Exercise: for every item that follows, state its recorded CC50 at 72 h.
assay: Cytotoxicity against human HuH5.2 cells assessed as reduction in cell viability after 72 hrs by MTS assay; type: cell-based, Huh-5-2

For orientation, consider the following solved cases.
COc1ccc(S(=O)(=O)NCCCN2CCN(CCCNS(=O)(=O)c3ccc(OC)c(OC)c3)CC2)cc1OC: > 166 µM
Cc1ccc2nc(N3C(=O)C(O)=C(C(=O)c4cc5ccccc5o4)C3c3cccc(Oc4ccccc4)c3)sc2c1 (stereo not drawn): > 89.5 µM
O=C(CCNS(=O)(=O)c1ccc(Cl)cc1)N1CCN(CCCNS(=O)(=O)c2ccc(Cl)cc2)CC1: 69.1 µM
O=S(=O)(NCCCN1CCN(CCNS(=O)(=O)c2ccc(Cl)cc2)CC1)c1ccc(Cl)cc1: 32.3 µM
Cc1ccc(S(=O)(=O)NCCCN2CCN(CCCNS(=O)(=O)c3ccc(-c4ccccc4)cc3)CC2)cc1: 6.55 µM

# map each molecule to its CC50 at 72 h
1. O=C(O)c1ccc(S(=O)(=O)NCCCN2CCN(CCCNS(=O)(=O)c3ccc(C(=O)O)cc3)CC2)cc1
2. O=S(=O)(NCCCN1CCN(CCCNS(=O)(=O)c2cccs2)CC1)c1cccs1
3. CC(C)(C)c1ccc(S(=O)(=O)NCCCN2CCN(CCCNS(=O)(=O)c3ccc(C(F)(F)F)cc3)CC2)cc1
4. CC(C)Oc1ccc(/C=N/N=C2/NC(=O)C(CC(=O)O)S2)cc1 (stereo not drawn)
5. Cc1ccc(S(=O)(=O)NCCCN2CCN(CCCNS(=O)(=O)c3ccccc3)CC2)cc1
6. COc1ccc(OC)c(S(=O)(=O)NCCC(=O)N2CCN(C(=O)CCNS(=O)(=O)c3cc(OC)ccc3OC)CC2)c1
7. O=S(=O)(NCCCN1CCN(CCCNS(=O)(=O)c2ccccc2Cl)CC1)c1ccccc1Cl
8. CC(CC(=O)O)CC(=O)Nc1cccnc1 (stereo not drawn)

1: > 176 µM; 2: > 203 µM; 3: 28.7 µM; 4: > 149 µM; 5: 138 µM; 6: > 79.5 µM; 7: > 182 µM; 8: > 225 µM
